Assign pIC50 to each entry below.
Target: Serine hydroxymethyltransferase, mitochondrial (Homo sapiens)
Sequence (P34897 whole entry): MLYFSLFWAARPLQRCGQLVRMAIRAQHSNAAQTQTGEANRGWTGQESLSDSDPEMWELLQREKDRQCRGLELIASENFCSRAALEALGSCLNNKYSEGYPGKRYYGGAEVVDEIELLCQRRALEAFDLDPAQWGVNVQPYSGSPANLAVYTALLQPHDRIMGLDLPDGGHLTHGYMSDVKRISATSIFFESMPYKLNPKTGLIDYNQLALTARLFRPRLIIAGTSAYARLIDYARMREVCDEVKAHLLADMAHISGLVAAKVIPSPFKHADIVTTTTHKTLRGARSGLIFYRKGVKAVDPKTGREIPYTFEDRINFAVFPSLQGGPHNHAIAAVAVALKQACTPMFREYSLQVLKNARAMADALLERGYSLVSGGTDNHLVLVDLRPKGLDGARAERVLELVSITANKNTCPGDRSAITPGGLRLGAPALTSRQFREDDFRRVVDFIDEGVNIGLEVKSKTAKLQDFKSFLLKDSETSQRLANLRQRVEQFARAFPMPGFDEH
Test: Inhibition of His-tagged human recombinant SHMT2 expressed in Escherichia coli BLR(DE3) assessed as reduction in NADPH level using L-serine, THF and NADP+ incubated for 5 mins by SHMT2-MTHFD coupled reaction based fluorescence assay
Conditions: read-out: IC50
Recall that pIC50 is obtained by taking minus log10 of the concentration measured in molar.

# input Provide only the value of recorded pIC50 for CCN(CC)S(=O)(=O)c1ccc(NC(=O)Nc2cn(CC(C)C)c(=O)c3ccccc23)cc1
# output 5.43

# input Provide only the value of recorded pIC50 for CCCCCC(C)n1nc(O)c2c(C)cc(=O)[nH]c21 (stereo not given)
# output 5.15

# input Provide only the value of recorded pIC50 for CC(C)CC(=O)Nc1cc(F)c2nc(N3CCOCC3)ccc2c1
# output 5.59

# input Provide only the value of recorded pIC50 for CCOC(=O)c1c(S(=O)(=O)Nc2ccc(OC)c(OC)c2)c(C)n(C)c1C
# output 5.09

# input Provide only the value of recorded pIC50 for CCOC(=O)c1nc(Nc2cc(OC)ccc2OC)c2ccccc2n1
# output 4.85

# input Provide only the value of recorded pIC50 for CCOc1ccc(NS(=O)(=O)c2ccc3c4c2CC(=O)N4CC(C)S3)cc1 (stereo not given)
# output 5.30

# input Provide only the value of recorded pIC50 for COc1cc(OC)c(N(C)C(=O)Nc2cn(C)c(=O)c3ccccc23)cc1Cl
# output 5.43

# input Provide only the value of recorded pIC50 for COc1ccc2nc(NC(=O)Nc3cn(CC(C)C)c(=O)c4ccccc34)sc2c1
# output 5.69

# input Provide only the value of recorded pIC50 for Cc1csc(NC(=O)Nc2cn(CC(C)C)c(=O)c3ccccc23)n1
# output 5.46

# input Provide only the value of recorded pIC50 for COc1ccc(N2C(=O)c3cccnc3C2Nc2ccc(OC)c(OC)c2)cc1 (stereo not given)
# output 5.53
